test system: K562 CRISPRi cells; assay: Constant region variant library pooled growth screen, K562; assay type: cell-based, human; details: sgRNA constant region variants; activity relative to the unmodified constant region cr995
Observed property: Mean relative activity

Molecule: cr447 (nucleic acid, listed as DNA, chemistry not fully specified) guide: GTTTAAGAGCTAAGCTGGAAACAGCATAGCAAGCTTAAATAAGGCTAGTCCGTTATCAACTTGAAAAAGTGGCACCAAGTTGGTGCT
Quantitative result: 0.1616
//
Molecule: cr194 (nucleic acid, listed as DNA, chemistry not fully specified) guide: GTTTAAGAGCTAAGCTGGAAACAGCATAGCAAGTTTAAATAAGGCTAGTACGTTATCAACTTGAAAAAGTGGCACCGAGTCGGTGCT
Quantitative result: 0.2113
